- ASSAY_TARGET: motilin receptor (Oryctolagus cuniculus)
- Construct: from tissue; host or cells: rabbit antral smooth muscle membranes
- ASSAY_NAME: Motilin receptor binding affinity (displacement of [125I-Tyr7,Nle13]motilin(porcine))
- Set-up: species or system rabbit
- RUN_PARAMETERS: negative logarithm of concentration displacing 50% of [125I-Tyr7,Nle13]motilin(porcine) bound to rabbit antral smooth muscle membranes; read-out: pIC50 (converted)
Positions of bridges follow the written chain, without caps; N, C: chain ends. Non-standard residues stand in square brackets, D forms with d. Residues, ends and D or L forms follow the SMILES beside them. *: point of attachment. X1 = C[N+](C)(C)[C@@H](Cc1ccccc1)C(=O)*; NMeF = CN[C@@H](Cc1ccccc1)C(=O)O
This listing pairs molecules with measured IC50.
MEASURED_ATTRIBUTE: IC50 (nM)

1. CC[C@H](C)[C@H](NC(=O)[C@@H]1CCCN1C(=O)[C@@H](NC(=O)[C@H](Cc1ccccc1)[N+](C)(C)C)C(C)C)C(=O)N[C@@H](Cc1ccccc1)C(=O)N[C@H](C(=O)N[C@@H](Cc1ccc(O)cc1)C(=O)NCC(=O)N[C@@H](CCC(=O)O)C(=O)N[C@H]1CC(=O)NCCCC[C@@H](C(=O)N[C@@H](CCCCN)C(N)=O)NC(=O)[C@H](CC(C)C)NC(=O)[C@H](CCCNC(=N)N)NC(=O)[C@H](C)NC1=O)[C@@H](C)O [SEQ ID NO:18] (X1-VPIFTYGEDARLKK-NH2; lactam 9-13); 1.78
2. CC[C@H](C)[C@H](NC(=O)[C@@H]1CCCN1C(=O)[C@@H](NC(=O)[C@H](Cc1ccccc1)NC)C(C)C)C(=O)N[C@@H](Cc1ccccc1)C(=O)N[C@H](C(=O)N[C@@H](Cc1ccc(O)cc1)C(=O)NCC(=O)N[C@@H](CCC(=O)O)C(=O)N[C@H]1CCC(=O)NCCCC[C@@H](C(=O)N[C@@H](CCCCN)C(N)=O)NC(=O)[C@H](CC(C)C)NC(=O)[C@@H](CCCNC(=N)N)NC(=O)[C@H](C)NC1=O)[C@@H](C)O [SEQ ID NO:15] (H-[NMeF]VPIFTYGEEA[dR]LKK-NH2; lactam 10-14); 1.02
3. CC[C@H](C)[C@H](NC(=O)[C@@H]1CCCN1C(=O)[C@@H](NC(=O)[C@H](Cc1ccccc1)NC)C(C)C)C(=O)N[C@@H](Cc1ccccc1)C(=O)N[C@H](C(=O)N[C@@H](Cc1ccc(O)cc1)C(=O)NCC(=O)N[C@@H](CCC(=O)O)C(=O)N[C@H]1CC(=O)NCCCC[C@@H](C(=O)N[C@@H](CCCCN)C(N)=O)NC(=O)[C@H](CC(C)C)NC(=O)[C@@H](CCCNC(=N)N)NC(=O)[C@H](C)NC1=O)[C@@H](C)O [SEQ ID NO:12] (H-[NMeF]VPIFTYGEDA[dR]LKK-NH2; lactam 10-14); 1.74
4. CC[C@H](C)[C@H](NC(=O)[C@@H]1CCCN1C(=O)[C@@H](NC(=O)[C@H](Cc1ccccc1)NC)C(C)C)C(=O)N[C@@H](Cc1ccccc1)C(=O)N[C@H](C(=O)N[C@@H](Cc1ccc(O)cc1)C(=O)NCC(=O)N[C@@H](CCC(=O)O)C(=O)N[C@H]1CCC(=O)NCCCC[C@@H](C(N)=O)NC(=O)[C@H](CC(C)C)NC(=O)[C@H](CCCNC(=N)N)NC(=O)[C@H](CCC(N)=O)NC1=O)[C@@H](C)O [SEQ ID NO:22] (H-[NMeF]VPIFTYGEEQRLK-NH2; lactam 10-14); 0.912

---

- ASSAY_TARGET: motilin receptor (Oryctolagus cuniculus, UniProt G1T803)
- Construct: from tissue; host or cells: rabbit antral smooth muscle membranes
- Sequence (G1T803 1-400): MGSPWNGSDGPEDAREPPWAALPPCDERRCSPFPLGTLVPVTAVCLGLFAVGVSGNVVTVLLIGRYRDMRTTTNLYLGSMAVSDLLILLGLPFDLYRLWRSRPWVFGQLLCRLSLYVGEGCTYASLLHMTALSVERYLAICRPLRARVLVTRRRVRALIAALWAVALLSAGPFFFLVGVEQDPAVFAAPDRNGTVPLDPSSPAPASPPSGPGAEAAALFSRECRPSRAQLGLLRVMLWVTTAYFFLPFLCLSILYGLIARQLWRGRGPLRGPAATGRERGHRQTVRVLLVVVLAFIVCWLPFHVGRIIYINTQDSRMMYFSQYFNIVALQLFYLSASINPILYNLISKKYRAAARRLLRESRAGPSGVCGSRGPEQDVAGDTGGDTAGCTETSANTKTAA
- ASSAY_NAME: Motilin receptor binding affinity (displacement of [125I-Tyr7,Nle13]motilin(porcine))
- Parameters: species or system rabbit
- RUN_PARAMETERS: negative logarithm of concentration displacing 50% of [125I-Tyr7,Nle13]motilin(porcine) bound to rabbit antral smooth muscle membranes; read-out: pIC50 (converted)
Positions of bridges follow the written chain, without caps; N, C: chain ends. Non-standard residues stand in square brackets, D forms with d. Residues, ends and D or L forms follow the SMILES beside them. *: point of attachment. X1 = C[N+](C)(C)[C@@H](Cc1ccccc1)C(=O)*; NMeF = CN[C@@H](Cc1ccccc1)C(=O)O; dNMeF = CN[C@H](Cc1ccccc1)C(=O)O
In this section we review reported IC50 values for a set of compounds.
MEASURED_ATTRIBUTE: IC50

1) CC[C@H](C)[C@H](NC(=O)[C@@H]1CCCN1C(=O)[C@@H](NC(=O)[C@@H](Cc1ccccc1)NC)C(C)C)C(=O)N[C@@H](Cc1ccccc1)C(=O)N[C@H](C(=O)N[C@@H](Cc1ccc(O)cc1)C(=O)NCC(=O)N[C@@H](CCC(=O)O)C(=O)N[C@H]1CCC(=O)NCCCC[C@@H](C(N)=O)NC(=O)[C@H](CC(C)C)NC(=O)[C@H](CCCNC(=N)N)NC(=O)[C@H](CCC(N)=O)NC1=O)[C@@H](C)O [SEQ ID NO:13] (H-[dNMeF]VPIFTYGEEQRLK-NH2; lactam 10-14); 5.5 nM
2) CC[C@H](C)[C@H](NC(=O)[C@@H]1CCCN1C(=O)[C@@H](NC(=O)[C@H](Cc1ccccc1)[N+](C)(C)C)C(C)C)C(=O)N[C@@H](Cc1ccccc1)C(=O)N[C@H](C(=O)N[C@@H](Cc1ccc(O)cc1)C(=O)NCC(=O)N[C@@H](CCC(=O)O)C(=O)N[C@H]1CC(=O)NCCCC[C@@H](C(=O)N[C@@H](CCCCN)C(N)=O)NC(=O)[C@H](CC(C)C)NC(=O)[C@@H](CCCNC(=N)N)NC(=O)[C@H](C)NC1=O)[C@@H](C)O [SEQ ID NO:19] (X1-VPIFTYGEDA[dR]LKK-NH2; lactam 9-13); 2.88 nM
3) CC[C@H](C)[C@H](NC(=O)[C@@H]1CCCN1C(=O)[C@@H](NC(=O)[C@H](Cc1ccccc1)NC)C(C)C)C(=O)N[C@@H](Cc1ccccc1)C(=O)N[C@H](C(=O)N[C@@H](Cc1ccc(O)cc1)C(=O)NCC(=O)N[C@@H](CCC(=O)O)C(=O)N[C@H]1CC(=O)NCCCC[C@@H](C(N)=O)NC(=O)[C@H](CC(C)C)NC(=O)[C@@H](CCCNC(=N)N)NC(=O)[C@H](C)NC1=O)[C@@H](C)O [SEQ ID NO:23] (H-[NMeF]VPIFTYGEDA[dR]LK-NH2; lactam 10-14); 11.5 nM
4) CC[C@H](C)[C@H](NC(=O)[C@@H]1CCCN1C(=O)[C@@H](NC(=O)[C@H](Cc1ccccc1)[N+](C)(C)C)C(C)C)C(=O)N[C@@H](Cc1ccccc1)C(=O)N[C@H](C(=O)N[C@@H](Cc1ccc(O)cc1)C(=O)NCC(=O)N[C@@H](CCC(=O)O)C(=O)N[C@H]1CC(=O)NCCCC[C@@H](C(=O)N[C@H](CCCCN)C(N)=O)NC(=O)[C@H](CC(C)C)NC(=O)[C@H](CCCNC(=N)N)NC(=O)[C@H](C)NC1=O)[C@@H](C)O [SEQ ID NO:11] (X1-VPIFTYGEDARLK[dK]-NH2; lactam 9-13); 1.23 nM
5) CC[C@H](C)[C@H](NC(=O)[C@@H]1CCCN1C(=O)[C@@H](NC(=O)[C@H](Cc1ccccc1)NC)C(C)C)C(=O)N[C@@H](Cc1ccccc1)C(=O)N[C@H](C(=O)N[C@@H](Cc1ccc(O)cc1)C(=O)NCC(=O)N[C@@H](CCC(=O)O)C(=O)N[C@H]1CC(=O)NCCCC[C@@H](C(N)=O)NC(=O)[C@H](CC(C)C)NC(=O)[C@H](CCCNC(=N)N)NC(=O)[C@H](C)NC1=O)[C@@H](C)O [SEQ ID NO:17] (H-[NMeF]VPIFTYGEDARLK-NH2; lactam 10-14); 0.575 nM
6) CC[C@H](C)[C@H](NC(=O)[C@@H]1CCCN1C(=O)[C@@H](NC(=O)[C@H](Cc1ccccc1)[N+](C)(C)C)C(C)C)C(=O)N[C@@H](Cc1ccccc1)C(=O)N[C@H](C(=O)N[C@@H](Cc1ccc(O)cc1)C(=O)NCC(=O)N[C@@H](CCC(=O)O)C(=O)N[C@H]1CCC(=O)NCCCC[C@@H](C(=O)N[C@@H](CCCCN)C(N)=O)NC(=O)[C@H](CC(C)C)NC(=O)[C@@H](CCCNC(=N)N)NC(=O)[C@H](C)NC1=O)[C@@H](C)O [SEQ ID NO:20] (X1-VPIFTYGEEA[dR]LKK-NH2; lactam 9-13); 1.55 nM
7) CC[C@H](C)[C@H](NC(=O)[C@@H]1CCCN1C(=O)[C@@H](NC(=O)[C@H](Cc1ccccc1)[N+](C)(C)C)C(C)C)C(=O)N[C@@H](Cc1ccccc1)C(=O)N[C@H](C(=O)N[C@@H](Cc1ccc(O)cc1)C(=O)NCC(=O)N[C@@H](CCC(=O)O)C(=O)N[C@H]1CC(=O)NCCCC[C@@H](C(N)=O)NC(=O)[C@H](CC(C)C)NC(=O)[C@H](CCCNC(=N)N)NC(=O)[C@H](C)NC1=O)[C@@H](C)O [SEQ ID NO:16] (X1-VPIFTYGEDARLK-NH2; lactam 9-13); 2.24 nM
8) CC[C@H](C)[C@H](NC(=O)[C@@H]1CCCN1C(=O)[C@@H](NC(=O)[C@H](Cc1ccccc1)NC)C(C)C)C(=O)N[C@@H](Cc1ccccc1)C(=O)N[C@H](C(=O)N[C@@H](Cc1ccc(O)cc1)C(=O)NCC(=O)N[C@@H](CCC(=O)O)C(=O)N[C@H]1CCC(=O)NCCCC[C@@H](C(=O)N[C@@H](CCCCN)C(N)=O)NC(=O)[C@H](CC(C)C)NC(=O)[C@H](CCCNC(=N)N)NC(=O)[C@H](C)NC1=O)[C@@H](C)O [SEQ ID NO:10] (H-[NMeF]VPIFTYGEEARLKK-NH2; lactam 10-14); 0.631 nM
9) CC[C@H](C)[C@H](NC(=O)[C@@H]1CCCN1C(=O)[C@@H](NC(=O)[C@H](Cc1ccccc1)[N+](C)(C)C)C(C)C)C(=O)N[C@@H](Cc1ccccc1)C(=O)N[C@H](C(=O)N[C@@H](Cc1ccc(O)cc1)C(=O)NCC(=O)N[C@@H](CCC(=O)O)C(=O)N[C@H]1CC(=O)NCCCC[C@@H](C(N)=O)NC(=O)[C@H](CC(C)C)NC(=O)[C@@H](CCCNC(=N)N)NC(=O)[C@H](C)NC1=O)[C@@H](C)O [SEQ ID NO:24] (X1-VPIFTYGEDA[dR]LK-NH2; lactam 9-13); 12.6 nM
10) CC[C@H](C)[C@H](NC(=O)[C@@H]1CCCN1C(=O)[C@@H](NC(=O)[C@H](Cc1ccccc1)[N+](C)(C)C)C(C)C)C(=O)N[C@@H](Cc1ccccc1)C(=O)N[C@H](C(=O)N[C@@H](Cc1ccc(O)cc1)C(=O)NCC(=O)N[C@@H](CCC(=O)O)C(=O)N[C@H]1CCC(=O)NCCCC[C@@H](C(=O)N[C@@H](CCCCN)C(N)=O)NC(=O)[C@H](CC(C)C)NC(=O)[C@H](CCCNC(=N)N)NC(=O)[C@H](C)NC1=O)[C@@H](C)O [SEQ ID NO:21] (X1-VPIFTYGEEARLKK-NH2; lactam 9-13); 1.35 nM

Recorded values, source patent US5734012A.
